assay: photoluminescence quantum yield (fraction); solvent given as SMILES; settings: in CC#N
Assay Endpoint: photoluminescence quantum yield

Cc1nc2cc(/C=C/c3ccc(N(C)C)cc3)ccc2nc1-c1ccccc1	0.01
CCCCN1C(=O)C(=C/C=C/C=C/C=C2N(CCCC)c3ccccc3N2CCCC)C(=O)N(CCCC)C1=S	0.099
CCn1c(=O)nc2n(C)c3cc(C)ccc3nc-2c1=O	0.14
O=c1c2cc(Cl)ccc2nc2n1[B-](F)(F)[n+]1ccccc1-2	0.89

(A) N#Cc1cccc(N)c1
(B) Cc1c(OCC(=O)O)cc2c3c([nH]c2c1C)C(=O)CCC3
Lookup: Would you let me know which has the greater photoluminescence quantum yield value, A or B ? Label of pick, please.
Found: A

* * *

experiment: photoluminescence quantum yield (fraction); solvent given as SMILES; conditions: in CCCCO
Assay Endpoint: photoluminescence quantum yield

CN(C)c1ccc(/C=C/c2ccccn2)cc1	0.026
O=C1c2ccccc2-c2ccc(N3CCN(c4ccccc4)CC3)c3cccc1c23	0.014
COCCOc1ccc(OCCOC)c(C=O)c1	0.23
O=C(O)COc1ccc2[nH]c3c(c2c1)CCCC3=O	0.012
CCCCCCC(CCCCCC)N1C(=O)c2cccc3c(-c4ccc(OC)c5cccc(C)c45)ccc(c23)C1=O	0.047
CCCCCCC(CCCCCC)N1C(=O)c2cccc3c(-c4ccc(OC)cc4)ccc(c23)C1=O	0.83
CCCCCCC(CCCCCC)N1C(=O)c2cccc3c(-c4ccc(OC)c5ccccc45)ccc(c23)C1=O	0.088
COC(=O)c1ccc2c3ccc(C(=O)OC)c4c(C(=O)OC)ccc(c5ccc(C(=O)OC)c1c25)c43	0.96
ClC(Cl)=C1c2ccccc2C(C2(Cl)c3ccccc3C(=C(Cl)Cl)c3ccccc32)c2ccccc21 (stereo unspecified)	0.21
COC(=O)C(Cc1ccc2oc(-c3ccc(-n4c5ccccc5c5ccccc54)cc3)nc2c1)NC(=O)OC(C)(C)C (stereo unspecified)	0.69
O=C1c2ccccc2-c2cccc(O)c21	0.022

* * *

assay: photoluminescence quantum yield (fraction); solvent given as SMILES; settings: in ClCCl
Assay Endpoint: photoluminescence quantum yield

COc1ccc2c(c1)c1cc(OC)ccc1c1c2c2c(C(=O)NC(C)(C)C)ccc(C(=O)NC(C)(C)C)c2c2c3ccc(OC)cc3c3cc(OC)ccc3c21	0.1
CCN1c2ccc(-c3cc(C(F)(F)F)[nH]n3)cc2Sc2cc(-c3cc(C(F)(F)F)[nH]n3)ccc21	0.56
C1=Cc2ccc(N(c3ccccc3)c3ccccc3)cc2Cc2cc(N(c3ccccc3)c3ccccc3)ccc21	0.99
CCOC(=O)COc1ccc(/C=C/C2=C3C(C)=CC(C)=[N+]3[B-](F)(F)n3c2c2ccccc2c3-c2[nH]c(C)cc2C)cc1	0.01

(I) COc1ccc(C2=[N+]3C(=Nc4c(-c5ccccc5)cc(-c5ccc(OC)cc5)n4[B-]3(F)F)C(c3ccccc3)=C2)cc1
(II) N#Cc1cnc(-c2c3ccccc3cc3ccccc23)nc1
(III) C[Si]1(C)c2ccccc2-c2ccccc21
(IV) Brc1ccc(/C=C/c2ccncn2)cc1
Lookup: Let's sort these by photoluminescence quantum yield, smallest first. Go ahead? Output spec: labels arranged per the requested ranking.
Found: IV, II, III, I
(IV: 0.01, II: 0.07, III: 0.14, I: 0.36)

(P) Cc1cc(C)c(C2=C3C=C(/C=C/C(=O)OCc4ccccc4)C=[N+]3[B-](F)(F)n3cccc32)c(C)c1
(Q) c1ccc(-c2nc(-c3ccc(N(c4ccccc4)c4ccccc4)cc3)n3ccccc23)cc1
Lookup: Would you let me know which has the greater photoluminescence quantum yield value, P or Q ? Label of pick, please.
Found: P
(P: 0.36, Q: 0.127)

* * *

test: photoluminescence quantum yield (fraction); solvent given as SMILES; conditions: in ClCCl
Assay Endpoint: photoluminescence quantum yield

CCCCN1C(=O)c2cc(Oc3ccc(C(C)(C)C)cc3)c3c4c(Oc5ccc(C(C)(C)C)cc5)cc5c(=O)[nH]/c(=C\c6ccccn6)c6cc(Oc7ccc(C(C)(C)C)cc7)c(c7c(Oc8ccc(C(C)(C)C)cc8)cc(c2c37)C1=O)c4c56	0.421
Cc1ccc(C)n1-c1cccc(C#N)c1	0.003
COc1ccc(C2=Cc3ccccc3[Si]2(c2ccccc2)c2ccccc2)cc1	0.99
F[B-]1(F)n2c(c3ccccc3c2-c2ccccc2)C=C2c3ccccc3C(c3ccccc3)=[N+]21	0.88

* * *

experiment: photoluminescence quantum yield (fraction); solvent given as SMILES; settings: in C1CCOC1
Assay Endpoint: photoluminescence quantum yield

Example cases with answers are listed next.
C[P+](c1c2ccccc2cc2ccccc12)(c1c2ccccc2cc2ccccc12)c1c2ccccc2cc2ccccc12	0.0077
F[B-]1(F)n2c(c(-c3ccccc3)c(-c3ccccc3)c2-c2ccccc2)C(c2ccccc2)=C2C(c3ccccc3)=C(c3ccccc3)C(c3ccccc3)=[N+]21	0.2
CCOC(=O)c1ccccc1-c1c2ccc(=O)cc-2oc2cc(OC(=O)[C@H](CSCc3ccc(C)cc3)NC(=O)OC(C)(C)C)ccc12	0.006

(A) C(=C\c1cc2ccccc2c2ccccc12)/c1c2ccccc2cc2ccccc12
(B) COc1ccc(C2=C(c3ccc(OC)cc3)C(c3ccc(OC)cc3)=[N+]3C2=C(c2ccc(OC)cc2)c2c(-c4ccc(OC)cc4)c(-c4ccc(OC)cc4)c(-c4ccc(OC)cc4)n2[B-]3(F)F)cc1
Lookup: # min-compare on photoluminescence quantum yield between A and B Label of pick, please.
Found: B

* * *

test: photoluminescence quantum yield (fraction); solvent given as SMILES; conditions: in C1CCOC1
Assay Endpoint: photoluminescence quantum yield

Example cases with answers are listed next.
Brc1ccc(-c2nc(-c3ccc(C#Cc4ccc(-n5c6ccccc6c6ccccc65)cc4)cc3)nc(-c3ccc(C#Cc4ccc(-n5c6ccccc6c6ccccc65)cc4)cc3)n2)cc1	0.68
CN(C)c1ccc(C(=O)Nc2ccc([N+](=O)[O-])cc2)cc1	0.0003
CN(C)c1ccc(C(=O)Nc2ccc(F)cc2)cc1	0.0053
O=C(O)COc1ccc2[nH]c3c(c2c1)CCCC3=O	0.01
OB(O)c1ccc(-c2ccc(N(c3ccccc3)c3ccccc3)cc2)cc1	0.65

(a) C(=C1c2ccccc2-c2ccccc21)c1ccc(C=C2c3ccccc3-c3ccccc32)cc1
(b) NS(=O)(=O)c1ccc(N2N=C(c3ccc(O)cc3)CC2c2ccc(Cl)cc2)cc1 (centres undefined)
(c) CCN1c2ccc(-c3cc(C(F)(F)F)[nH]n3)cc2Sc2cc(-c3cc(C(F)(F)F)[nH]n3)ccc21
Lookup: Let's sort these by photoluminescence quantum yield, smallest first. Go ahead? Output spec: labels arranged per the requested ranking.
Found: a, c, b

* * *

assay: photoluminescence quantum yield (fraction); solvent given as SMILES; conditions: in CN(C)C=O
Assay Endpoint: photoluminescence quantum yield

(I) CCn1c2ccc(/C=C/c3ccc4c(c3)c3cc(-c5nc6ccccc6s5)ccc3n4CC)cc2c2cc(-c3nc4ccccc4s3)ccc21
(II) CCN(CC)c1ccc2c(c1)oc(=O)c1cc3c(-c4ccccc4)nn(C)c3nc12
(III) Cc1ccc2[nH]c(-c3ccc(-c4ccc(-c5ccc(-c6nc7cc(C)ccc7[nH]6)cc5)c(F)c4)cc3)nc2c1
(IV) Nc1ccc(N2C(=O)c3ccc4c5ccc6c7c(ccc(c8ccc(c3c48)C2=O)c75)C(=O)N(c2ccc(N)cc2)C6=O)cc1
Lookup: Reorder: photoluminescence quantum yield, max to min. Output spec: labels arranged per the requested ranking.
Found: III, I, IV, II

* * *

assay: photoluminescence quantum yield (fraction); solvent given as SMILES; settings: in ClCCl
Assay Endpoint: photoluminescence quantum yield

Example cases with answers are listed next.
CN(C)c1ccc2cc(C3=[O+][B-](F)(F)OC(c4ccc(C#N)cc4)=C3)ccc2c1	0.87
Cc1ccccc1C(=O)NN1C2=C(CC3=C1CC(C)(C)CC3=O)C(=O)CC(C)(C)C2	0.47
CC[N+]1=C(/C=C/c2c(C)nn3c(-c4ccc(OC)cc4)ccnc23)C(C)(C)c2ccccc21	0.13
CCCn1c2cccc3oc4cccc5oc6cccc1c6[c+](c45)c32	0.59
c1coc(-c2nc3ccccc3[nH]2)c1	0.86

(I) CC(C)c1cccc(C(C)C)c1N1C(=O)c2cccc3c(Oc4ccc(C(C)(C)c5ccccc5)cc4)ccc(c23)C1=O
(II) CCN(CC)c1ccc2cc(-c3nc4cc(C(=O)Nc5ccccc5)ccc4o3)c(=O)oc2c1
Lookup: # min-compare on photoluminescence quantum yield between I and II Label of pick, please.
Found: I
(I: 0.11, II: 0.35)

* * *

Recorded photoluminescence quantum yield for the following compounds
experiment: photoluminescence quantum yield (fraction); solvent given as SMILES; conditions: in Cc1ccccc1
I'd appreciate a reply containing only the number, no unit.

Example cases with answers are listed next.
N#Cc1ccc2c(c1)C1(c3cc(C#N)ccc3-2)c2ccccc2N(c2ccccc2)c2ccccc21	0.47
C[Si](C)(C)C#Cc1cc2ccc3cc(C#C[Si](C)(C)C)cc4ccc(c1)c2c34	0.19
CCCCCCCCC1(CCCCCCCC)c2cc(-c3ccc([N+](=O)[O-])cc3)ccc2-c2ccc(-c3ccc([N+](=O)[O-])cc3)cc21	0
CCCCCCC(CCCCCC)N1C(=O)c2cccc3c(-c4ccc(OC)c5cccc(C)c45)ccc(c23)C1=O	0.19
COc1cc(OC)cc(C2=[O+][B-](F)(F)OC(c3ccc4cc(OC)ccc4c3)=C2)c1	0.79
C(#Cc1ccc(N(c2ccc(C#Cc3ccc(-c4cc(-c5ccccc5)nc(-c5ccccc5)c4)cc3)cc2)c2ccc(C#Cc3ccc(-c4cc(-c5ccccc5)nc(-c5ccccc5)c4)cc3)cc2)cc1)c1ccc(-c2cc(-c3ccccc3)nc(-c3ccccc3)c2)cc1	0.16
CCCCCCc1ccc2c3c(ccc2c1)O[B-](F)(F)[N+](c1ccc([N+]2=Cc4c(ccc5cc(CCCCCC)ccc45)O[B-]2(F)F)cc1)=C3	0.43
CCCCCCCCCC1(CCCCCCCCC)c2cc(C#Cc3ccc(/C=C/c4ccc(N(CCCCCCCC)CCCCCCCC)cc4)cc3)ccc2-c2ccc(C#Cc3ccc(/C=C/c4ccc(N(CCCCCCCC)CCCCCCCC)cc4)cc3)cc21	0.61

Query compound follows.
Lookup: Which photoluminescence quantum yield reading was recorded for the compound `COc1ccc(N(c2ccc(OC)cc2)c2ccc3ccc4c(B(c5c(C)cc(C)cc5C)c5c(C)cc(C)cc5C)ccc5ccc2c3c54)cc1` ?
Found: 0.85
